- Tested on: Matricaria inodora
- protocol.text: Herbicidal pre-emergence action (Method B) against MATIN
- Type: in vivo
- reported.conditions: Tripleurospermum inodorum, 504 h, 320 g/ha, scored visually after about 3 weeks vs untreated controls
Each entry below lists one item and its recorded pest or weed control at 320 g/ha value.
assay.endpoint: pest or weed control at 320 g/ha (%)

| structure | system.name | readout.value |
| --- | --- | --- |
| NNC(=O)c1nc(C2CC2)ncc1-c1ccccc1Cl | Matricaria inodora | 100 |
| CCNC(=O)NNC(=O)c1nc(C2CC2)ncc1-c1ccccc1Cl | Matricaria inodora | 90 |
| CN(C)NC(=O)c1nc(C2CC2)ncc1-c1ccccc1Cl | Matricaria inodora | 100 |
| O=C(NN=C1CCOCC1)c1nc(C2CC2)ncc1-c1ccccc1Cl | Matricaria inodora | 100 |
| O=C(NNc1ccccn1)c1nc(C2CC2)ncc1-c1ccccc1Cl | Matricaria inodora | 100 |
